Catalogue of IC50 readings, one per entry.
molecular target: Chk1 (Homo sapiens, UniProt O14757); construct: purchased Upstate Biotechnology; assay: Chk1 kinase assay: incorporation of γ-33P ATP into immobilized myelin basic protein; format: biochemical; conditions: read-out: Chk1 IC50
Sequence (O14757 whole entry): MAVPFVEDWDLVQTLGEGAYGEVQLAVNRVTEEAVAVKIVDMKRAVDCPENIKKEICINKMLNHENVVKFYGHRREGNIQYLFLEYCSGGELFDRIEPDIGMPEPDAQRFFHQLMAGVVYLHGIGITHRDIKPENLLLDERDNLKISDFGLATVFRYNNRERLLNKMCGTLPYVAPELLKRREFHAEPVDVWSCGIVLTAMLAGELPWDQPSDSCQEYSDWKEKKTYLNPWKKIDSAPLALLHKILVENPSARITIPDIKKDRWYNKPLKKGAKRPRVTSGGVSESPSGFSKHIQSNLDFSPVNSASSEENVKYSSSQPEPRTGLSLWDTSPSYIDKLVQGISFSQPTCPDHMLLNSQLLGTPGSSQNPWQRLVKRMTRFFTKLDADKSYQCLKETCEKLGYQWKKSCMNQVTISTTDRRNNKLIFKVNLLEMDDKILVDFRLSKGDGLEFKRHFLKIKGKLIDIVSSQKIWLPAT

{"COMPOUND": "CNC(=O)c1nc(-c2cccc(NC(=O)NCc3ccccc3)c2)cnc1N", "IC50": "50 to 1000 nM"}
{"COMPOUND": "CNC(=O)c1nc(-c2cccc(C(=O)NCc3cccc(I)c3)c2)cnc1N", "IC50": "< 50 nM"}
{"COMPOUND": "CNC(=O)c1nc(-c2cccc(OCCN3CCN(C)CC3)c2)cnc1N", "IC50": "50 to 1000 nM"}
{"COMPOUND": "CNC(=O)c1nc(-c2cccc(-c3nnn[nH]3)c2)cnc1N", "IC50": "1000 to 10000 nM"}

Next molecule, please.
For `CNC(=O)c1nc(-c2noc(C(C)(C)C)n2)cnc1N` , what is its reported IC50? ≥ 10000 nM

* * *

biological target: Chk1 (Homo sapiens); construct: purchased Upstate Biotechnology; test: Chk1 kinase assay: incorporation of γ-33P ATP into immobilized myelin basic protein; format: biochemical; settings: read-out: Chk1 IC50
IC50 reference

Solved cases below.
{"COMPOUND": "CNC(=O)c1nc(-c2cccc(C(=O)NCc3ccccc3-c3ccncc3)c2)cnc1N", "IC50": "50 to 1000 nM"}
{"COMPOUND": "CNC(=O)c1nc(-c2cccc(C(=O)NCC(C)C)c2)cnc1N", "IC50": "1000 to 10000 nM"}

Suppose we examine the compound `CNC(=O)c1nc(-c2cccc(NC(=O)c3cccc(OC)c3)c2)cnc1N` ; what IC50 value has been reported? 50 to 1000 nM

// same read-out, input: `CNC(=O)c1nc(-c2cccc(-c3noc(CCc4ccccc4)n3)c2)cnc1N` 1000 to 10000 nM

Another compound to look at: `CNC(=O)c1nc(-c2cccc(C(=O)NCc3ccccc3C(F)(F)F)c2)cnc1N` 50 to 1000 nM

Also need `CNC(=O)c1nc(-c2cccc(C(=O)Nc3ccccc3)c2)cnc1N` , thanks. 1000 to 10000 nM

Here is the next compound: `CNC(=O)c1nc(-c2cccc(C(=O)NC3Cc4ccccc4C3)c2)cnc1N` 50 to 1000 nM

// query: `CNC(=O)c1nc(-c2ccc3[nH]ccc3c2)cnc1N` 50 to 1000 nM

Entry `CNC(=O)c1nc(-c2cccc(C(=O)NCc3ccc(O)c(OC)c3)c2)cnc1N` please 50 to 1000 nM

* * *

Listed here are compounds together with their documented IC50.
target: Chk1 (Homo sapiens); construct: purchased Upstate Biotechnology; assay: Chk1 kinase assay: incorporation of γ-33P ATP into immobilized myelin basic protein; assay type: biochemical; conditions: Table 11; Chk1 only; read-out: Chk1 IC50

Take a look at these entries with their results.
{"COMPOUND": "CC(C)(NC(=O)c1cccc(-c2cnc(N)c(C(=O)N[C@H]3CCNC3)n2)c1)c1ccccc1", "TARGET_ENTITY": "Chk1 (Homo sapiens)", "RESULT": "0.05 to 1 µM"}
{"COMPOUND": "Cc1noc(C)c1NC(=O)NCCNC(=O)c1nc(-c2cccc(C(=O)NCc3ccccc3)c2)cnc1N", "TARGET_ENTITY": "Chk1 (Homo sapiens)", "RESULT": "1 to 10 µM"}

--- query ---
So what does the record say about IC50 for `Nc1ncc(-c2cccc(C(=O)N[C@@H]3c4ccccc4C[C@@H]3O)c2)nc1C(=O)N[C@H]1CCNC1` ? < 0.05 µM

* * *

target: Chk1 (Homo sapiens, UniProt O14757); construct: purchased Upstate Biotechnology; experiment: Chk1 kinase assay: incorporation of γ-33P ATP into immobilized myelin basic protein; type: biochemical; conditions: read-out: Chk1 IC50
Measured IC50 accompanies every entry in the list below.

Check out these entries, answers already filled in.
{"COMPOUND": "CNC(=O)c1nc(-c2cccc(C(=O)NCc3cccc(F)c3F)c2)cnc1N [Example 215]", "TARGET_ENTITY": "Chk1 (Homo sapiens, UniProt O14757)", "IC50": "1 to 10 µM"}
{"COMPOUND": "Nc1ncc(-c2cccc(C(=O)NCc3c(F)cccc3Cl)c2)nc1C(=O)NC1CC1 [Example 271]", "TARGET_ENTITY": "Chk1 (Homo sapiens, UniProt O14757)", "IC50": "≥ 10 µM"}

Here is the next item to consider.
Quick one: IC50 of CNC(=O)c1nc(-c2cccc(C(=O)NCCc3ccccc3OC)c2)cnc1N [Example 130] ? 0.05 to 1 µM

* * *

Molecular target: Chk1 (Homo sapiens, UniProt O14757)
Construct: purchased Upstate Biotechnology
Experiment: Chk1 kinase assay: incorporation of γ-33P ATP into immobilized myelin basic protein
Type: biochemical
Conditions: read-out: Chk1 IC50
Protocol: Chk1 and Chk2 assays were performed by measuring incorporation of γ-^33P ATP into immobilized myelin basic protein (MBP). […] Each data point was measured in duplicate, and at least two duplicate assays were performed for each individual compound determination. […] The above assay procedure can be used to determine the IC50 for inhibition and/or the inhibition constant Ki. […] The Ki for a compound may be determined from the IC50 based on three assumptions. […]
Examples of compounds with documented IC50 follow.

Value lookup for IC50; key = CNC(=O)c1nc(-c2cccc(C(=O)N[C@@H]3CCC[C@H]3OCc3ccccc3)c2)cnc1N [Example 163] 1000 to 10000 nM

* * *

Target: Chk1 (Homo sapiens)
Construct: purchased Upstate Biotechnology
Experiment: Chk1 kinase assay: incorporation of γ-33P ATP into immobilized myelin basic protein
Assay type: biochemical
Details: Table 11; Chk1 only; read-out: Chk1 IC50
Protocol: Chk1 and Chk2 assays were performed by measuring incorporation of γ-^33P ATP into immobilized myelin basic protein (MBP). […] Each data point was measured in duplicate, and at least two duplicate assays were performed for each individual compound determination. […] The above assay procedure can be used to determine the IC50 for inhibition and/or the inhibition constant Ki. […] The Ki for a compound may be determined from the IC50 based on three assumptions. […]
READOUT: IC50

Worked cases, IC50 given:
{"COMPOUND": "Nc1ncc(-c2cccc(C(=O)NCc3ccccc3)c2)nc1C(=O)N[C@H]1CCN(C[C@H]2CCCN2)C1 [Example 689]", "READOUT": "IC50", "RESULT": "1000 to 10000 nM"}
{"COMPOUND": "CNC(=O)c1nc(-c2cccc(CNC3CCc4cc(F)cc(F)c43)c2)cnc1N (stereo not drawn) [Example 479]", "READOUT": "IC50", "RESULT": "50 to 1000 nM"}
{"COMPOUND": "Nc1ncc(-c2cccc(C(=O)NC3COc4ccccc43)c2)nc1C(=O)N[C@H]1CCNC1 (stereo partly drawn) [Example 779]", "READOUT": "IC50", "RESULT": "50 to 1000 nM"}
{"COMPOUND": "COCc1nnc(-c2nc(-c3cccc(CN[C@H]4CCc5ccccc54)c3)cnc2N)[nH]1 [Example 595]", "READOUT": "IC50", "RESULT": "1000 to 10000 nM"}
{"COMPOUND": "Nc1ncc(-c2cccc(C(=O)NCc3ccccc3)c2)nc1C(=O)N1CCNCC1 [Example 593]", "READOUT": "IC50", "RESULT": "≥ 10000 nM"}
{"COMPOUND": "CNC(=O)c1nc(-c2cccc(CN[C@@H](CO)c3ccccc3)c2)cnc1N [Example 428]", "READOUT": "IC50", "RESULT": "50 to 1000 nM"}

What value of IC50 has been reported for the following compound? Nc1ncc(-c2cccc(CN[C@H]3CCc4ccccc43)c2)nc1C(=O)NCCO [Example 547] 50 to 1000 nM

Okay, and CNCCCNC(=O)c1nc(-c2cccc(CN[C@H]3CCc4ccccc43)c2)cnc1N [Example 597] ? < 50 nM

* * *

molecular target: Chk1 (Homo sapiens, UniProt O14757); construct: purchased Upstate Biotechnology; assay: Chk1 kinase assay: incorporation of γ-33P ATP into immobilized myelin basic protein; type: biochemical; details: Table 11; Chk1 only; read-out: Chk1 IC50
pIC50: −log10 of the molar value.
READOUT: pIC50

Look at this compound and give its reported pIC50. CC(C)(C)OC(=O)N1CCCC(NC(=O)c2nc(-c3cccc(C(=O)N[C@H]4CCc5ccccc54)c3)cnc2N)C1 (some centres unmarked) ≤ 5.00

Try `Nc1ncc(-c2cccc(CN[C@H]3CCc4ccccc43)c2)nc1C(=O)NCC1CC1` next. 6.00 to 7.30

* * *

Target: Chk1 (Homo sapiens, UniProt O14757)
Construct: purchased Upstate Biotechnology
Experiment: Chk1 kinase assay: incorporation of γ-33P ATP into immobilized myelin basic protein
Assay type: biochemical
Conditions: Table 11, Chk1 only; class symbols A-D; read-out: Chk1 IC50
Description: Chk1 and Chk2 assays were performed by measuring incorporation of γ-^33P ATP into immobilized myelin basic protein (MBP). […] Each data point was measured in duplicate, and at least two duplicate assays were performed for each individual compound determination. […] The above assay procedure can be used to determine the IC50 for inhibition and/or the inhibition constant Ki. […] The Ki for a compound may be determined from the IC50 based on three assumptions. […]
READOUT: IC50

Example entries begin here.
{"COMPOUND": "Nc1ncc(-c2cccc(CNC(=O)Nc3ccc(OC(F)(F)F)cc3)c2)nc1C(=O)N[C@H]1CCCNC1", "IC50": "< 50 nM"}
{"COMPOUND": "Nc1ncc(-c2cccc(NC(=O)Cc3cccnc3)c2)nc1C(=O)N[C@H]1CCCNC1", "IC50": "< 50 nM"}
{"COMPOUND": "Nc1ncc(-c2cccc(C(=O)NCc3cc(F)cc(F)c3F)c2)nc1C(=O)N[C@H]1CCNC1", "IC50": "50 to 1000 nM"}
{"COMPOUND": "Nc1ncc(-c2cccc(CNS(=O)(=O)c3ccc(OC(F)(F)F)cc3)c2)nc1C(=O)N[C@H]1CCCNC1", "IC50": "50 to 1000 nM"}

Lab note: next compound to report on.
If you can, please state the reported IC50 value of `CN1CC[C@H](NC(=O)c2nc(-c3cccc(C(=O)N[C@@H]4c5ccccc5C[C@@H]4O)c3)cnc2N)C1` . 50 to 1000 nM
